System: SARS-CoV-2
METRIC: IC50

Summary for this substance, Ac-ESLSLSLSLSLSLEGSALEEGQLKTFLDKFMHELEDLLYQLAL-NH2 (N-terminus and C-terminus assumed) [ESBP2] : IC50 is < 10 nM
